# SYSTEM_TESTED: Human MrgprX2 (Homo sapiens)
# Construct: expressed in transfected cells
# Sequence (Q96LB1 whole entry): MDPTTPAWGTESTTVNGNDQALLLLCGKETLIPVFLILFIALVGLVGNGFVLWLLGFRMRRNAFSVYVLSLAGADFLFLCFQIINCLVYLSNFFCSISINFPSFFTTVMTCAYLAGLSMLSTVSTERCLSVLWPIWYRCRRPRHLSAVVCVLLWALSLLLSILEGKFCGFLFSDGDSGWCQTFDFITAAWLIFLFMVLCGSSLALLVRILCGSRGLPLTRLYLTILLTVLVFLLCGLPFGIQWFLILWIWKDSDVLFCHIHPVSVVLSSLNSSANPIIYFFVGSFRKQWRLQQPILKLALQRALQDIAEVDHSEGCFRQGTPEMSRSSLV
# EXPERIMENTAL_PROTOCOL: Human MrgprX2 antagonist FLIPR intracellular calcium mobilization assay
# Assay type: cell-based
# STUDY_CONDITIONS: antagonist activity, recombinant hMrgpMRGPRX2 expressing cells, read-out: Human MrgprX2 Antagonist pIC50 (converted)
# Source text: Potent and selective hMrgpMRGPRX2 compounds have been generated from compounds identified during a high throughput screening (HTS) campaign and followed up with cycles of structure activity based medicinal chemistry efforts. […] The assays used to determine potencies are functional read-out looking at intracellular calcium mobilization using the FLIPR™ technology. […]
QUANTITY: IC50 (µM)

SMILES_RECORD: O=C(Nc1ncc(Cc2cccc(F)c2)s1)N1CC[C@@H](CO)C1
READOUT_UNITS: µM
TEST_RESULT: 0.794

I: CCN(C[C@H](C)O)C(=O)Nc1ncc(Oc2ccc(Cl)nc2)s1
II: CC1(C(=O)Nc2ncc(Cc3cccc(Cl)c3)s2)CCOCC1
III: CC1(C(=O)Nc2ncc(Oc3cccc(Cl)c3)s2)CCOCC1
Descending sort on IC50 required. Enter labels, ranked according to the request.
I, II, III

a: CC(C)C(=O)Nc1nc(C#N)c(Oc2ccc(F)cc2)s1
b: CCN(C[C@H](C)O)C(=O)Nc1ncc(Oc2ccc(F)c(C#N)c2)s1
c: CN1CCC[C@@H]1C(=O)Nc1ncc(Cc2cccc(F)c2)s1
d: C[C@H](O)CN(C)C(=O)Nc1ncc(Oc2ccccc2)s1
List by increasing IC50. Enter labels, ranked according to the request.
d, b, c, a
